Data provenance is the supplement of paper PMC10567573.

Recorded measurements of protein stability index, one per entry
B1: SETD8 (parent)
chain: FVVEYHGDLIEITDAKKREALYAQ

Variants of: B1
Assay: protein stability index of a GFP-peptide fusion (GPS, HEK-293T) (PSI 1-6); higher = more stable;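 note: lentivirally expressed fusions sorted by FACS into six bins by GFP to DsRed ratio, PSI derived from sequencing read proportions per bin multiplied by bin number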
Settings: c terminus: a fixed tail appended
Hey, just send me the number, nothing else.

Here is how some variants turned out for protein stability index.
mutation_spec=Q24A quantity_measured="protein stability index" numeric_readout=2.5
mutation_spec=V3K quantity_measured="protein stability index" numeric_readout=2.36
mutation_spec=H6E quantity_measured="protein stability index" numeric_readout=2.88
mutation_spec=D8G quantity_measured="protein stability index" numeric_readout=2.01
mutation_spec=H6R quantity_measured="protein stability index" numeric_readout=2.18

Identify protein stability index associated with the variant "Q24K"
1.86
